Test system: Malme-3M
Test: NCI tumour cell line growth inhibition, 48 h
Activity calls are given as the source filed them. No stated cut-off is given here; in the data, active = GI50 up to about 1.1 µM and inactive = higher.
I would appreciate it if you answered using one of these outcomes: true (1) = active, false (0) = inactive

Exercise: Query: recorded result category for COc1ccc2nc3ccc(OC)cc3c(S(=O)(=O)Cc3ccc([N+](=O)[O-])cc3)c2c1 in this test
Solution: false (0)

Exercise: And CC(=O)O[C@]1(C)OC(=O)[C@@H](CC(C)C)N1[N+](=O)[O-] ?
Solution: false (0)

Exercise: Can you handle COc1cc(/C=C/C(=O)c2sc(Nc3ccccc3)nc2C)ccc1O next?
Solution: false (0)

Exercise: COc1cc(C(C)c2cc3c(cc2OCCNC(=O)COc2cc4c(cc2C(C)c2cc(OC)c(OC)c(OC)c2)OCO4)OCO3)cc(OC)c1OC (stereo unspecified) , same question.
Solution: false (0)

Exercise: Now try COc1c(C=O)c2c(c(OC)c1OC)-c1ccc(OC)c(=O)cc1[C@@H](NC(C)=O)CC2 .
Solution: true (1)

Exercise: Please answer likewise for CC(=O)ON(C(C)=O)c1ccc(-c2nc3ccccc3s2)cc1
Solution: false (0)

Exercise: What do we get for COC(=O)[C@@]1(O)CC(C)C=C1C=O (stereo partly specified) ?
Solution: false (0)

Exercise: Do the same for CSC(=S)N/N=C/c1nccc2ccccc12 please
Solution: false (0)

Exercise: Same question for O=c1c(C(c2ccc([N+](=O)[O-])cc2)c2c(O)c3ccccc3n(-c3ccccc3)c2=O)c(O)c2ccccc2n1-c1ccccc1 please.
Solution: false (0)

Exercise: Try the compound Cc1cc(=O)oc2cc(O)c(CN(C)CC(=O)O)cc12
Solution: false (0)

Exercise: Likewise for COC(=O)c1nsc(OC)c1Cl ?
Solution: false (0)

Exercise: Please do the same for O=C(CCC(=O)Nc1cccc(C(F)(F)F)c1)CC(=O)c1ccc2ccccc2c1 as well.
Solution: false (0)

Exercise: Entry CCOC(=O)N[C@H]1CCc2cc(OC)c(OC)c(OC)c2-c2ccc(SC)c(=O)cc21 please
Solution: true (1)

Exercise: What do you get for O=C(CSC1=NCCN1)Nc1ccccc1 ?
Solution: false (0)

Exercise: Next record, please: c1ccc2c(c1)nnn2CN1CCOCC1
Solution: false (0)

Exercise: Now this one: NC(=O)C(=O)C1C(=O)N(c2ccccc2)N=C1N (stereo unspecified)
Solution: false (0)

Exercise: Please do the same for C#CCCCC(=O)N(C(=O)C[S+]([O-])CC)c1ccccc1 (stereo unspecified) as well.
Solution: false (0)

Exercise: And then CCOC(=O)Cc1c(C(=O)OCC)[n+]([O-])c2cc(Cl)c(Cl)cc2[n+]1[O-] , what is it?
Solution: false (0)

Exercise: Could you do the same for CC(=O)Nc1ccc(S(=O)(=O)[N-]C2C(=O)c3ccccc3C(=O)C2[n+]2ccccc2)cc1 (stereo unspecified) , please?
Solution: false (0)

Exercise: How about Nc1ccc(C(=O)N/C(=C\c2ccc3c(c2)OCO3)c2nc3ccc4c(c3[nH]2)C(=O)c2ccccc2C4=O)cc1 ?
Solution: false (0)

Exercise: Item: Cc1cccc(N/C(=C(/C(Cl)=C(Cl)Cl)[N+](=O)[O-])n2nnc3ccccc32)c1
Solution: false (0)

Values from ChEMBL document CHEMBL1201862
